- Study system: FAAH (Rattus norvegicus)
- Sequence (P97612 1-579): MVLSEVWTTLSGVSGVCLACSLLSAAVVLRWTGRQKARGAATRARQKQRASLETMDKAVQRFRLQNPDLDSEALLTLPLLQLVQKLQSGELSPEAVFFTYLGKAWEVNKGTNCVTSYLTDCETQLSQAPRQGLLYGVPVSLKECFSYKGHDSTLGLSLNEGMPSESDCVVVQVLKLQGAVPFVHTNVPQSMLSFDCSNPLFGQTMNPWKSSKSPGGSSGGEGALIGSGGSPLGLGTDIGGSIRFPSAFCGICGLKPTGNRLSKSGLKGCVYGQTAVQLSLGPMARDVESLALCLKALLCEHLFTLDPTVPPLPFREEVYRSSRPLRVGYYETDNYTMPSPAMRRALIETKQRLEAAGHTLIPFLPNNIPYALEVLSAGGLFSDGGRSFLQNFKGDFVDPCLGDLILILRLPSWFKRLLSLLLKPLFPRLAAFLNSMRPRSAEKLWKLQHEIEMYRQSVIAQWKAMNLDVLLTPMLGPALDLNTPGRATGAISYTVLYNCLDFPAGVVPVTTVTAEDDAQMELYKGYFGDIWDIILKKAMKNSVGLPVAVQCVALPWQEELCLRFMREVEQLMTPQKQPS
Property name: Ki (nM)
Entry rule: numbers only, all in nM.

Task: Requested read-out: Ki. Entry: O=S(=O)(F)CCCCCc1ccc(O)cc1 [AM3506]
Result: 31
